All figures here come from ChEMBL document CHEMBL4513216.

Test system: Plasmodium falciparum
assay-remarks: Screen against P. falciparum Asexual Blood Stage (ABS), at 5uM
Format: functional, Dd2
assay-context: tested at 5 uM
About 2,100 (3.2%) of roughly 65,000 compounds showed an effect of 50% or more. The median lay at about -52%. Many of the other results were omitted from the sample, so strong results are more common in it than they were.
Below, each entry is listed with its recorded INHIBITION.
property-name: INHIBITION

COc1c(CNC2CCc3cc(Cl)ccc32)c(C)nn1C (stereo unspecified) : 21.4%
Cc1nn(C)c2c(=O)n(C(C)C)c(NCCc3ccccc3)nc12 : 13.9%
CN(Cc1cn2c(n1)CN(C1CCOCC1)CC2)Cc1ccco1 : -29.2%
O=C1N(Cc2ccc(F)cc2)CCCC12CCN(C1CCSCC1)C2 (stereo unspecified) : 9.56%
COc1ccc2c(c1)ncn2C[C@]1(O)CCCN2CCCC[C@@H]21 : -42.3%
Cc1nc(O)c2nnn(C[C@H]3CCCN3C(=O)c3ccccc3C)c2n1 : -51%

----------
Test system: Plasmodium falciparum
assay-remarks: Screen against P. falciparum Asexual Blood Stage (ABS), at 5uM
Format: functional, Dd2
assay-context: tested at 5 uM
About 2,100 (3.2%) of roughly 65,000 compounds showed an effect of 50% or more. The median lay at about -52%. Shown is part of a subset that was picked to be rich in strong results.
// classify: if (INHIBITION < -40%) fulfilled else not fulfilled

Fc1ccc(C2(NCc3ccccc3)CCOCC2)cc1 : not fulfilled
CCN(CC)C(=O)C1CCCN1C(=O)c1cccc(-n2cnnn2)c1 (stereo not drawn) : fulfilled
COc1cc(Oc2cnc3ccccc3n2)ccc1CN1CCCC1 : not fulfilled
CN(C)c1ccc(CNC2(c3ccc(F)cc3)CCOCC2)cc1F : not fulfilled
CNc1cncc(C2CCN(C(=O)c3coc(C)n3)CC2)n1 : fulfilled
NCc1ccnc(Oc2ccc(F)cc2)c1 : fulfilled
Cc1ccc(CN(C)C(=O)CNC(C)(C)c2noc(C(C)(C)C)n2)o1 : fulfilled
O=C(NC1CC1)c1nc(Cn2c(C(F)F)nc3ccccc32)no1 : fulfilled
COc1ccc(Oc2ccc(C(F)(F)F)cn2)cc1CN1CCCC1 : not fulfilled
CC(C)n1nc(CN(C)C)c2c1CN(C(=O)CC1CC1)CC2 : fulfilled
Cc1ccccc1COCCOCn1c(C)cc(=O)[nH]c1=O : fulfilled
Cc1ccc(-c2cc(CN3CCc4cnc(C)nc4C3)on2)cc1 : not fulfilled
Cc1cc(C[C@@H]2CCC[C@H]2NCc2cccc(F)c2F)on1 : fulfilled
CO[C@H]1CCN(S(=O)(=O)c2cn(C)cn2)[C@H]1Cc1cccnc1 : not fulfilled
CN(Cc1nccn1C)C1CCCN(CCCc2ccccc2)C1 (stereo not drawn) : not fulfilled
Cc1cc(C[C@@H]2CCC[C@H]2NCc2ccccc2C(F)(F)F)on1 : not fulfilled
NC(=O)CCNCc1c(Cl)cccc1N1CCCC1 : not fulfilled
Cc1cc(C[C@@H]2CCC[C@H]2NCc2ccccc2C)on1 : not fulfilled

----------
Tested on: Plasmodium falciparum
assay-remarks: Screen against P. falciparum Asexual Blood Stage (ABS), at 5uM
Assay type: functional, Dd2
assay-context: tested at 5 uM
In all, about 65,000 compounds went through this assay and about 2,100 (3.2%) showed an effect of 50% or more. The median lay at about -52%. The sample as a whole holds a higher share of strong results than the screen did.
Below, each entry is listed with its recorded INHIBITION.
property-name: INHIBITION

CC1=C(c2ccc(Cl)cc2)S(=O)(=O)N=C1N1CCc2ccccc21 : -35.6%
CC(C)NC(=O)[C@H]1C[C@@H]2[C@@H](C1)OCCN2Cc1cccs1 : -20.5%
CCOc1ncccc1CNc1nnc(C)c(C)c1C#N : 60%
CC(C)Nc1nc(-c2ccccc2)nc2c1CCN(C(=O)C1CC1)CC2 : 27.8%
